# Tested on: KU812 (Chronic Myelogenous Leukemia);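 further: after 72 h of two-drug dosing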
# measurementProtocol: Bliss excess, mean over the matrix (fraction); higher = more synergy
measuredAttribute: Bliss excess
Response field accepts a number only; no unit should be typed.

So the reported Bliss excess for CN(C)CCCOc1ccc(-c2ccc3ncc4c(c3c2)n(C2CCOCC2)c(=O)n4C)cn1 [AZD0156] + C[C@@H]1COCCN1C2=NC(=NC(=C2)C3(CC3)[S@](=N)(=O)C)C4=C5C=CNC5=NC=C4 [AZD6738] (first compound max 1 µM, 7x7, partner max 10 µM) , on KU812 (Chronic Myelogenous Leukemia), turned out to be -0.0299

Entry CN(CCO)CC[C@H](CSc1ccccc1)Nc1ccc(S(=O)(=O)NC(=O)c2ccc(N3CCC([C@@H](O)c4ccccc4-c4ccc(Cl)cc4)CC3)cc2)cc1S(=O)(=O)C(F)(F)F [AZD4320] + CC(=O)O[C@H]1C(=O)[C@@]2(C)[C@H]([C@H](OC(=O)c3ccccc3)[C@]3(O)C[C@H](OC(=O)[C@H](O)[C@@H](NC(=O)c4ccccc4)c4ccccc4)C(C)=C1C3(C)C)[C@]1(OC(C)=O)CO[C@@H]1C[C@@H]2O [Paclitaxel] (first compound max 1 µM, 7x7, partner max 3 µM) : Bliss excess on KU812 (Chronic Myelogenous Leukemia) = -0.0252

Bliss excess of Cn1cnc2c(F)c(Nc3ccc(Br)cc3Cl)c(C(=O)NOCCO)cc21 [Selumetinib] + C=CCn1c(=O)c2cnc(Nc3ccc(N4CCN(C)CC4)cc3)nc2n1-c1cccc(C(C)(C)O)n1 [AZD1775] (first compound max 10 µM, partner max 1 µM) , assay on KU812 (Chronic Myelogenous Leukemia), is -0.0367

// returns Bliss excess for O=C(c1cc(Cc2n[nH]c(=O)c3ccccc23)ccc1F)N1CCN(C(=O)C2CC2)CC1 [Olaparib] + CN(CC[C@H](CSC1=CC=CC=C1)NC2=C(C=C(C=C2)S(=O)(=O)NC(=O)C3=CC=C(C=C3)N4CCC(CC4)[C@H](C5=CC=CC=C5C6=CC=C(C=C6)Cl)O)S(=O)(=O)C(F)(F)F)CCO [AZD4320] (first compound max 10 µM, 7x7, partner max 1 µM) with KU812 (Chronic Myelogenous Leukemia); value = -0.0517

Value sought: Bliss excess, system KU812 (Chronic Myelogenous Leukemia), item C=CCn1c(=O)c2cnc(Nc3ccc(N4CCN(C)CC4)cc3)nc2n1-c1cccc(C(C)(C)O)n1 [AZD1775] + Nc1ccn([C@@H]2O[C@H](CO)[C@@H](O)C2(F)F)c(=O)n1 [Gemcitabine] (first compound max 1 µM, partner max 0.3 µM) . Result: -0.0107
